pEC50 by entry:
# TEST_SYSTEM: human RXFP1 (Homo sapiens, UniProt Q9HBX9)
# Sequence (Q9HBX9 whole entry): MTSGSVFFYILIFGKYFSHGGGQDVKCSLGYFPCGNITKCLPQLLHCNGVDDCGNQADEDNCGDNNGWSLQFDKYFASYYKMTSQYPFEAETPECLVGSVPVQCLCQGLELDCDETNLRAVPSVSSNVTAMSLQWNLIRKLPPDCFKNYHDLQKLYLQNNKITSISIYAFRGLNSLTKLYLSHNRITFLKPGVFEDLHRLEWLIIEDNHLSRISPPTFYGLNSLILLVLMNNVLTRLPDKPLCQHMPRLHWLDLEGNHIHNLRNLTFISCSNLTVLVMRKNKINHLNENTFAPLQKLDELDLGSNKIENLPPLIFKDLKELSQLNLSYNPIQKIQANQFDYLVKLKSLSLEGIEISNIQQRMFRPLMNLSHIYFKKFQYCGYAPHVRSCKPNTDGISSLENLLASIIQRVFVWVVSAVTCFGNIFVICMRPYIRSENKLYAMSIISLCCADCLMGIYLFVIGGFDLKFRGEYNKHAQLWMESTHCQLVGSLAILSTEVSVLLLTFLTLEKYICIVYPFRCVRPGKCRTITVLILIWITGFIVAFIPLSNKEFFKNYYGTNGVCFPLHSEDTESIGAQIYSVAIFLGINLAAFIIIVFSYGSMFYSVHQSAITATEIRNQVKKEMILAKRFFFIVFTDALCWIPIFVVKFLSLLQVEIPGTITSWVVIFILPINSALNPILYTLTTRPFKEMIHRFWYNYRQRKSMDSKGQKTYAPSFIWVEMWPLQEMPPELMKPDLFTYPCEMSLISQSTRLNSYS
# MEASUREMENT_NOTES: RXFP1 Hu cAMP (Test A)
# Format: cell-based
# Set-up: expressed in transfected cells; host or cells: Jump-In T-REx CHO-K1 cells (ThermoFisher), induced with 10 ng/ml doxycycline for 24 h
# EXPERIMENTAL_CONTEXT: RXFP1 Hu cAMP; read-out: Test A EC50
pEC50: −log10 of the molar value.

COMPOUND	RESULT_MODIFIER	pEC50
COc1cc(F)c(OC2CCC(C)(C(=O)O)CC2)cc1C(=O)NC1CC(OC)CC1C(=O)Nc1cccc(S(=O)(=O)C(F)(F)F)c1 (single isomer, unassigned) [Example 522]	<	4.40
COc1cc(F)c(-c2cnn(CCC(=O)O)c2)cc1C(=O)N[C@@H]1[C@H]2CC[C@H](C2)[C@@H]1C(=O)Nc1cccc(S(=O)(=O)C(F)(F)F)c1 [Example 255]	=	6.26
COc1cc(C#N)c(OC2CCC(C)(C(=O)O)CC2)cc1C(=O)NC1C(C(=O)NCC2(C)CCC2)C2CCC1N2CCC(F)(F)F (single isomer, unassigned) [Example 537]	=	5.22
COc1cc(C#N)c(O[C@H]2CC[C@@](C)(C(=O)O)CC2)cc1C(=O)N[C@@H]1[C@H]2CC[C@H](C2)[C@@H]1C(=O)NCC1CC1 [Example 71]	=	6.41
COc1cc(C#N)c(O[C@H]2CC[C@@](C)(C(=O)O)CC2)cc1C(=O)N[C@@H]1[C@H]2CC[C@H](C2)[C@@H]1C(=O)NC1(C2CC2)CC1 [Example 112]	=	6.33
